# target or test system: Sphingosine 1-phosphate receptor 4 (Homo sapiens) (UniProt O95977)
# Sequence (O95977 whole entry, looked up): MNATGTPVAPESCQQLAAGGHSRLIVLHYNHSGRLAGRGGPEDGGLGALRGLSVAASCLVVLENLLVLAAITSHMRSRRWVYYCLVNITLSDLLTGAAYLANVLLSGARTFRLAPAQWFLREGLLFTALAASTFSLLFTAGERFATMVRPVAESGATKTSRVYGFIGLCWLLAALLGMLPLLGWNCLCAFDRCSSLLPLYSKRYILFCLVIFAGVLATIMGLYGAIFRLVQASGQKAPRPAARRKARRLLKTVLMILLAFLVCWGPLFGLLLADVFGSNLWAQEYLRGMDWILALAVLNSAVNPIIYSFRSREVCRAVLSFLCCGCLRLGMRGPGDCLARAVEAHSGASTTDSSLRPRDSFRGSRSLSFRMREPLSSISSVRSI
# run description: S1P4 receptor antagonists, primary screen, cell-based (AID 1510);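 note: 0% = wells stimulated with agonist and 100% = vehicle wells without agonist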
# run parameters: S1P4-expressing cells, antagonist mode, reporter read-out; at 4.98 µM; stronger effect = higher value
Hit rate of the full screen: of about 220,000 compounds, about 570 (0.26%) were called active. Many of the other results were omitted from the sample, so actives are more common in it than they were.
reported metric: inhibition (%)
All answers are understood in %, so give the number only.

Challenge: Return inhibition for the following compound: `Cc1nc([N+](=O)[O-])cn1CC(=O)Nc1ccc2c(c1)OCO2`
Response given: -4.57

Field: next compound
Challenge: Report measured inhibition; entry is `COc1ccc(NC(=O)COC(=O)c2ccncc2)c(OC)c1`
Response given: -5.29
